target: UniProtKB Q962Y6; assay: Inhibition of Schistosoma mansoni TGR
Sequence (Q962Y6 whole entry): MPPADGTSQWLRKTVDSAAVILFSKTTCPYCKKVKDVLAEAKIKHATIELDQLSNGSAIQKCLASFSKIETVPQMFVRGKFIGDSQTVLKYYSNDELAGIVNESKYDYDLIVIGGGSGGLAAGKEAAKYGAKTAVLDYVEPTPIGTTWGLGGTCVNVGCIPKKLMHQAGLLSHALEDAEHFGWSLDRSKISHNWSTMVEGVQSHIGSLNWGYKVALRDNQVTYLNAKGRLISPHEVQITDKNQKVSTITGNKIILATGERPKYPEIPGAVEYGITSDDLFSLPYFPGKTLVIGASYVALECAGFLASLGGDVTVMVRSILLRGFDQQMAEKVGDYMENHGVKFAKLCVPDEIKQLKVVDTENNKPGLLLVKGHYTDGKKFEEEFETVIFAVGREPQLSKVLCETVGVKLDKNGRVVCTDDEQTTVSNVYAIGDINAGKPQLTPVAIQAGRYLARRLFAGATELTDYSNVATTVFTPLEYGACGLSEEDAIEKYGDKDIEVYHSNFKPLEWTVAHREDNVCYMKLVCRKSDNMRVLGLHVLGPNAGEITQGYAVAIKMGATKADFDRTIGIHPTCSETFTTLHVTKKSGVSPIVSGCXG
pIC50: −log10 of the molar value.
Kind request: treat 6 as inclusive, so pIC50 at 6 or higher is label 1, anything lower is label 0.

Record excerpt, results attached:
chemical structure	class
O=C(O)c1c(-c2ccccc2)no[n+]1[O-]	label 1
NC(=O)c1c(-c2ccccc2)no[n+]1[O-]	label 0
N#Cc1c(-c2ccco2)no[n+]1[O-]	label 0

-- ask Threshold query (pIC50 >= 6) on `O=C(c1cccs1)c1no[n+]([O-])c1C(=O)c1cccs1`
-- reply label 1

-- ask Threshold query (pIC50 >= 6) on `N#Cc1c(-c2cccs2)no[n+]1[O-]`
-- reply label 0

-- ask Threshold query (pIC50 >= 6) on `N#Cc1c(C(=O)c2cccs2)no[n+]1[O-]`
-- reply label 1
